assay: Solubility was measured by shaking with water; assay type: physicochemical
VALUE_KIND: solubility thermodynamic

Challenge: Give its solubility thermodynamic value. Item: "CCOc1ccc(-c2nc(-c3cc(OC(C)=O)cc(OC(C)=O)c3)cs2)cc1OCC"
Response given: < 1 µg/mL

---

Would you mind telling me the reported solubility of each entry?
assay: Solubility was measured by shaking with water and 1 equiv of NaOH; type: physicochemical; conditions: water with 1 equiv of NaOH
In your response, put the unit directly after the numeric value.

Here's what some known entries look like.
>>> value("CCOc1ccc(-c2nc(-c3ccc(C(=O)O)s3)cs2)cc1OCC")
"23 mg/mL"
>>> value("CCOc1ccc(-c2nc(-c3ccc(C(=O)O)o3)cs2)cc1OCC")
"23 mg/mL"
>>> value("CCOc1ccc(-c2nc(-c3ccccc3C(=O)O)cs2)cc1OCC")
"21 mg/mL"

Could you report solubility for every entry in the following list?
1. CCOc1ccc(-c2nc(-c3cccc(C(=O)O)n3)cs2)cc1OCC
2. CCOc1ccc(-c2nc(-c3ccc(C(=O)O)cc3)cs2)cc1OCC

Response given:
21 mg/mL
23 mg/mL

Challenge: Reported solubility for "CCOc1ccc(-c2nc(-c3cccc(C(=O)O)c3)cs2)cc1OCC" : what is it?
Response given: 23 mg/mL
